A collection of compounds and their measured log10 EC50
system: ZR-75-1; experiment: Cytotoxicity against human ZR-75-1 cells after 72 hrs by MTT assay; format: functional; conditions: ZR-75-1, 72 h, read-out: ED50 (the source's name)
Remember, log10 of EC50, in µg/mL.

A selection of reference data follows.
RECORD SMILES | TGT | OBSERVED VALUE
CCc1cccc2c(OC)c(-c3occ(C)c3C(=S)OC)ccc12 | ZR-75-1 | 0.76
CCOC(=O)c1c(C)coc1-c1ccc2c(CC)cccc2c1OC | ZR-75-1 | 0.59
CCOc1c(-c2occ(C)c2C(=O)OC)ccc2c(CC)cccc12 | ZR-75-1 | 0.08
CCc1cccc2c(OC)c(-c3occ(C)c3CBr)ccc12 | ZR-75-1 | 0.66

Under ZR-75-1: log10 EC50 value of CCc1cccc2c(OC)c(-c3occ(C)c3C(=O)OC)ccc12 ?
0.11

I'm curious: which log10 EC50 was measured for CCc1cccc2c(OC)c(-c3occ(C)c3COC(=O)CCN(CC)CC)ccc12 tested on ZR-75-1?
0.23

For the record CCc1cccc2c(OC)c(-c3occ(C)c3COC)ccc12 , what value of log10 EC50 is listed for ZR-75-1?
0.99

Provide the documented log10 EC50 with ZR-75-1 as the system for CCc1cccc2c(O)c(-c3occ(C)c3C(=O)O)ccc12
-0.52

# returns recorded log10 EC50 (system: ZR-75-1) for CCOCc1c(C)coc1-c1ccc2c(CC)cccc2c1OC
0.96

Give the reported log10 EC50 for CCOc1c(-c2occ(C)c2COC(C)=O)ccc2c(CC)cccc12 (system: ZR-75-1).
0.69

Please state recorded log10 EC50 (tested on ZR-75-1) of CCc1cccc2c(OC)c(-c3occ(C)c3COCC(F)(F)F)ccc12
0.72

# credit: ChEMBL document CHEMBL1641375
